These measurements were taken from ChEMBL document CHEMBL1201862.

system: NCI-H226; experiment: NCI tumour cell line growth inhibition, 48 h
Activity calls are given as the source filed them. No stated cut-off is given here; in the data, active = GI50 up to about 1.1 µM and inactive = higher.

MOLECULE: CC1(CC(=O)O)OC2CCCCCC2O1.NCc1ccccc1 (centres undefined)
EXPERIMENTAL_SYSTEM: NCI-H226
GI50: > 100 µM (inactive)
--
MOLECULE: CC(NNC(=O)c1ccncc1)c1ccc(F)cc1 (centres undefined)
EXPERIMENTAL_SYSTEM: NCI-H226
GI50: > 100 µM (inactive)
--
MOLECULE: CC(C)(C)N(Cc1ccc2c(c1)OCO2)C(=O)/C=C\Sc1ccccc1
EXPERIMENTAL_SYSTEM: NCI-H226
GI50: 68.2 µM (inactive)
--
MOLECULE: CC(C)(C)[Si](C)(C)OCC1C=CC(n2cnc3c(N)ncnc32)O1 (centres undefined)
EXPERIMENTAL_SYSTEM: NCI-H226
GI50: 19.2 µM (inactive)
--
MOLECULE: O=C(Nc1nnc(-c2ccc(Cl)cc2)o1)C(SC(=S)N1CCOCC1)c1ccccc1 (centres undefined)
EXPERIMENTAL_SYSTEM: NCI-H226
GI50: 21.9 µM (inactive)
--
MOLECULE: C#CCOC(=O)C(N)CCSC (centres undefined)
EXPERIMENTAL_SYSTEM: NCI-H226
GI50: > 100 µM (inactive)
--
MOLECULE: CC1=Nn2c(nnc2-c2ccc(N)cc2)NC(C)(C)C1
EXPERIMENTAL_SYSTEM: NCI-H226
GI50: > 100 µM (inactive)
--
MOLECULE: C/C(=N\NC(=O)CC#N)c1c(O)cc(C)oc1=O
EXPERIMENTAL_SYSTEM: NCI-H226
GI50: > 100 µM (inactive)
--
MOLECULE: CCCCC[C@@H]1CCCC2NC(CCCCCO[Si](c3ccccc3)(c3ccccc3)C(C)(C)C)CCC21 (some centres undefined)
EXPERIMENTAL_SYSTEM: NCI-H226
GI50: 18.7 µM (inactive)
--
MOLECULE: COc1ccc(/C=C2/C(=O)N(C(=O)c3ccccc3O)N=C2C)cc1
EXPERIMENTAL_SYSTEM: NCI-H226
GI50: 1.35 µM (inactive)
--
MOLECULE: CC(C)(C)c1cc(OCc2nnc3sc(-c4ccc(Cl)cc4)nn23)c(Cl)cc1OCc1nnc2sc(-c3ccc(Cl)cc3)nn12
EXPERIMENTAL_SYSTEM: NCI-H226
GI50: 17.3 µM (inactive)
--
MOLECULE: N#CCCN(c1ccc(/C=N/c2cccc([N+](=O)[O-])c2)cc1)S(=O)(=O)c1ccccc1
EXPERIMENTAL_SYSTEM: NCI-H226
GI50: 56.9 µM (inactive)
--
MOLECULE: CCCCCCCCCCCc1cc(=O)c2c(O)cccc2o1
EXPERIMENTAL_SYSTEM: NCI-H226
GI50: 37.8 µM (inactive)
--
MOLECULE: Nc1c(S(=O)(=O)O)cc(S(=O)(=O)O)c2ccc(/N=N/c3ccccc3)c(O)c12
EXPERIMENTAL_SYSTEM: NCI-H226
GI50: > 100 µM (inactive)
--
MOLECULE: CS(=O)(=O)Sc1ccc(Cl)cc1
EXPERIMENTAL_SYSTEM: NCI-H226
GI50: 7.48 µM (inactive)
--
MOLECULE: CN1CCN(c2cc3nc4cc(O)cc(O)c4c(O)c3cc2N)CC1
EXPERIMENTAL_SYSTEM: NCI-H226
GI50: 1.95 µM (inactive)
--
MOLECULE: C1=C2C3=[N+](CCCCC3)CC2Cc2ccsc21 (centres undefined)
EXPERIMENTAL_SYSTEM: NCI-H226
GI50: > 100 µM (inactive)
--
MOLECULE: CCC(C#N)N(Cc1cccc(CN(C(C)=O)C(C#N)CC)c1)C(C)=O (centres undefined)
EXPERIMENTAL_SYSTEM: NCI-H226
GI50: 44.5 µM (inactive)
--
MOLECULE: O=c1c2cc(S(=O)(=O)Nc3c(Cl)cccc3Cl)ccc2ncn1NS(=O)(=O)c1ccc2ccccc2c1
EXPERIMENTAL_SYSTEM: NCI-H226
GI50: 8.87 µM (inactive)
--
MOLECULE: COc1ccc(/C=C2\N=C(c3ccccc3)N(C3Nc4cc5c(cc4S3)NC(N3C(=O)/C(=C/c4ccc(OC)cc4)N=C3c3ccccc3)S5)C2=O)cc1 (centres undefined)
EXPERIMENTAL_SYSTEM: NCI-H226
GI50: 60.1 µM (inactive)
--
MOLECULE: O=c1[nH]nc(Cc2ccccc2)n1/N=C/c1ccncc1
EXPERIMENTAL_SYSTEM: NCI-H226
GI50: > 100 µM (inactive)
--
MOLECULE: N#CC(NNC(=O)c1ccccc1O)c1ccccc1 (centres undefined)
EXPERIMENTAL_SYSTEM: NCI-H226
GI50: 5.87 µM (inactive)
--
MOLECULE: CC(=O)OC1CC2C(C)(C)C(=O)C=C[C@]2(C)C2CCC3(C)C(=CCC3[C@H](CO)C[C@H](O)C(=O)C(C)(C)O)[C@]12C (some centres undefined)
EXPERIMENTAL_SYSTEM: NCI-H226
GI50: 20.6 µM (inactive)
--
MOLECULE: CC(C)=CCC[C@@H](C)C1=C(O)C(=O)C(C)=C(Nc2ccccc2Br)C1=O
EXPERIMENTAL_SYSTEM: NCI-H226
GI50: 14.7 µM (inactive)
--
MOLECULE: N#Cc1nc(-c2cccc(-c3nc(C#N)c(N)o3)n2)oc1N
EXPERIMENTAL_SYSTEM: NCI-H226
GI50: > 100 µM (inactive)
--
MOLECULE: Cc1sc(/N=C/c2c[nH]c3ccccc23)c(C#N)c1C
EXPERIMENTAL_SYSTEM: NCI-H226
GI50: 30.5 µM (inactive)
--
MOLECULE: COc1cc(C2S/C(=C/c3ccccc3)C(=O)N2c2ccccn2)cc(OC)c1OC (centres undefined)
EXPERIMENTAL_SYSTEM: NCI-H226
GI50: 45.9 µM (inactive)
--
MOLECULE: CCOC(=O)/C=C(\C(=O)OCC)n1cnc2c(N)ncnc21
EXPERIMENTAL_SYSTEM: NCI-H226
GI50: 5.97 µM (inactive)
--
MOLECULE: COC12OC3(C4OC41)C(C(=O)O[C@H]3CO[Si](C)(C)C(C)(C)C)C2S(=O)(=O)c1ccccc1 (some centres undefined)
EXPERIMENTAL_SYSTEM: NCI-H226
GI50: > 100 µM (inactive)
--
MOLECULE: C#C[C@@H](OC(=O)c1ccc([N+](=O)[O-])cc1)[C@@H]1C[C@H]2O[C@@H]([C@H](C/C=C/CC)OC(=O)c3ccc([N+](=O)[O-])cc3)C[C@H]2O1
EXPERIMENTAL_SYSTEM: NCI-H226
GI50: > 100 µM (inactive)
--
MOLECULE: Clc1ccc(C2SCc3nc4ccccc4n32)c(Cl)c1 (centres undefined)
EXPERIMENTAL_SYSTEM: NCI-H226
GI50: 14.8 µM (inactive)
--
MOLECULE: COc1ccc(C2SCC(=O)N2NC(=O)C(C)Oc2ccccc2C)cc1 (centres undefined)
EXPERIMENTAL_SYSTEM: NCI-H226
GI50: > 100 µM (inactive)
--
MOLECULE: O=C(NC(=O)c1ccccc1)OC(c1ccccc1)C1CO1 (centres undefined)
EXPERIMENTAL_SYSTEM: NCI-H226
GI50: > 100 µM (inactive)
--
MOLECULE: COc1cc2c(cc1O)C1CC(CC3CCCCN31)OC(=O)/C=C\c1ccc(O)c-2c1 (centres undefined)
EXPERIMENTAL_SYSTEM: NCI-H226
GI50: 41.4 µM (inactive)
--
MOLECULE: O=[N+]([O-])/C(Cl)=C(\NCCN/C(C(Cl)=C(Cl)Cl)=C(/Cl)[N+](=O)[O-])C(Cl)=C(Cl)Cl
EXPERIMENTAL_SYSTEM: NCI-H226
GI50: > 100 µM (inactive)
--
MOLECULE: CCOC(=O)CCNC(=O)c1cc(C)cc2c1Oc1c(cc(C)cc1C(=O)NCCC(=O)OCC)S2
EXPERIMENTAL_SYSTEM: NCI-H226
GI50: 81.7 µM (inactive)
--
MOLECULE: O=C(O)c1cncc(C(=O)O)c1
EXPERIMENTAL_SYSTEM: NCI-H226
GI50: > 100 µM (inactive)
--
MOLECULE: O=C(O)C12C3CCCC1C2CC3 (centres undefined)
EXPERIMENTAL_SYSTEM: NCI-H226
GI50: > 100 µM (inactive)
--
MOLECULE: O=c1[nH]c2ccccc2c(=O)n1/N=C/c1ccc(O)cc1
EXPERIMENTAL_SYSTEM: NCI-H226
GI50: > 100 µM (inactive)
